Data origin, for the record: ChEMBL document CHEMBL1921733

# measured_target: hERG (KCNH2) (Homo sapiens, UniProt Q12809)
# Sequence (Q12809 whole entry): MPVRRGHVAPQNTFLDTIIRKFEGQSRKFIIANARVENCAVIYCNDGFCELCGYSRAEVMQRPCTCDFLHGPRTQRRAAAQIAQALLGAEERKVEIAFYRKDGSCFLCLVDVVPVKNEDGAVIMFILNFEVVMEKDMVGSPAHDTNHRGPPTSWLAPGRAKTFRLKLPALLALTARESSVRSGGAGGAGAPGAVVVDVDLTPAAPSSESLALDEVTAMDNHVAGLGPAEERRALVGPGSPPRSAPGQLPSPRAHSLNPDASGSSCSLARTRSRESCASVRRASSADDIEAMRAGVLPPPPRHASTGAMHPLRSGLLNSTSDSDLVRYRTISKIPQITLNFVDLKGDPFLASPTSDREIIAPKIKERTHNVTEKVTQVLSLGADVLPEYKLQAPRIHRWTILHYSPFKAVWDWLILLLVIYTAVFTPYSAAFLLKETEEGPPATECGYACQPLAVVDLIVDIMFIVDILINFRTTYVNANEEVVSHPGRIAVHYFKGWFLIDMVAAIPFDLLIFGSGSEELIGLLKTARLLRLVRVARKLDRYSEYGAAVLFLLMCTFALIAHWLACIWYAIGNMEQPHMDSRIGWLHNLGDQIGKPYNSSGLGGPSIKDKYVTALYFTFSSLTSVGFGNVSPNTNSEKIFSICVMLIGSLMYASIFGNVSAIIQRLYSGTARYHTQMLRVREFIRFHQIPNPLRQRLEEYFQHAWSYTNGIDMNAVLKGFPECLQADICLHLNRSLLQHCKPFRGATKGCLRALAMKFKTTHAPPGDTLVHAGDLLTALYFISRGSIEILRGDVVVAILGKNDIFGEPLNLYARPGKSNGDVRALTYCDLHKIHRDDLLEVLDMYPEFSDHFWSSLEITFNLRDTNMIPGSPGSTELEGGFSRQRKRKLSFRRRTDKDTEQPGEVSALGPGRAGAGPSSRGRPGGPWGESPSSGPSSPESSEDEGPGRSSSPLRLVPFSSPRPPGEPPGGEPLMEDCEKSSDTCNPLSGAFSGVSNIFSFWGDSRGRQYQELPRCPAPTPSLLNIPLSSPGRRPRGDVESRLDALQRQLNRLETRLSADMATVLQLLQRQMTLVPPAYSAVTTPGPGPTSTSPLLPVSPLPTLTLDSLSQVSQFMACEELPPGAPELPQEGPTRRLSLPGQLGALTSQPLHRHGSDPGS
# measurement_notes: Inhibition of human ERG at 10 uM by rubidium efflux assay
Give measured inhibition at 10 µM for each item. Keep answers brief.
Provide the reading as a plain figure in %.

Specify reported inhibition at 10 µM for the compound shown: `CC[C@H]1CN(c2ncc(C(N)=O)nc2C)CCN1C1CCN(C(=O)c2ccc(Cl)nc2N)CC1`
0

Specify reported inhibition at 10 µM for the compound shown: `CC[C@H]1CN(c2ncc(C(=O)NC3CC3)nc2Cl)CCN1C1CCN(C(=O)c2ccc(Cl)nc2N)CC1`
19

Specify reported inhibition at 10 µM for the compound shown: `CC[C@H]1CN(c2ncc(C(=O)NC3CC3)nc2C)CCN1C1CCN(C(=O)c2ccc(Cl)cc2)CC1`
74

Specify reported inhibition at 10 µM for the compound shown: `CC[C@H]1CN(c2ncc(C(=O)NC(C)C)nc2Cl)CCN1C1CCN(C(=O)c2ccc(Cl)nc2N)CC1`
56

Specify reported inhibition at 10 µM for the compound shown: `CC[C@H]1CN(c2ncc(C(N)=O)nc2C)[C@H](C)CN1C1CCN(C(=O)c2ccc(Cl)cc2)CC1`
9

Specify reported inhibition at 10 µM for the compound shown: `CC[C@H]1CN(c2ncc(C(=O)NC3CC3)nc2C(F)(F)F)CCN1C1CCN(C(=O)c2ccc(Cl)nc2N)CC1`
53

Specify reported inhibition at 10 µM for the compound shown: `CCNC(=O)c1cnc(N2CCN(C3CCN(C(=O)c4ccc(Cl)cc4)CC3)[C@@H](CC)C2)c(C)n1`
44

Specify reported inhibition at 10 µM for the compound shown: `CC[C@H]1CN(c2ncc(C(N)=O)nc2Cl)CCN1C1CCN(C(=O)c2ccc(Cl)nc2N)CC1`
7

###

Give measured IC50 for each item. Keep answers brief.
# measured_target: C-X-C chemokine receptor type 3 (Homo sapiens, UniProt P49682)
# Sequence (P49682 whole entry): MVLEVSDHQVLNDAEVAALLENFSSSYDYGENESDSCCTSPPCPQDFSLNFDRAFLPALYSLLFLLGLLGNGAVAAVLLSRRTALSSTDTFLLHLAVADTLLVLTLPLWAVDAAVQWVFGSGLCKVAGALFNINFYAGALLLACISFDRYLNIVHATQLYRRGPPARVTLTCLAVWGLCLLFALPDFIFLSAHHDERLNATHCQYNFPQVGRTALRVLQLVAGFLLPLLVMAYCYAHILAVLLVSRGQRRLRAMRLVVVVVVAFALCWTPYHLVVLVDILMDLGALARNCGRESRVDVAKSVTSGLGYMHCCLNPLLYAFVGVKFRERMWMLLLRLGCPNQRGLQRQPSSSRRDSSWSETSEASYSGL
# measurement_notes: Displacement of [125I]CXCL10 from human CXCR3 expressed in mouse BA/F3 cells
Provide the reading as a plain figure in nM.

Specify reported IC50 for the compound shown: `CCNC(=O)c1cnc(N2CCN(C3CCN(C(=O)c4ccc(Cl)cc4)CC3)[C@@H](CC)C2)c(C)n1`
2

Specify reported IC50 for the compound shown: `CC[C@H]1CN(c2ncc(C(N)=O)nc2C(F)(F)F)CCN1C1CCN(C(=O)c2ccc(Cl)nc2N)CC1`
1.9

Specify reported IC50 for the compound shown: `CC[C@H]1CN(c2nc(N)c(C(=O)NCCNS(N)(=O)=O)nc2Cl)CCN1C1CCN(Cc2ccc(Cl)cc2)CC1`
1.9

Specify reported IC50 for the compound shown: `CC[C@H]1CN(c2ncc(C(N)=O)nc2C)[C@H](C)CN1C1CCN(C(=O)c2ccc(Cl)cc2)CC1`
5.4

Specify reported IC50 for the compound shown: `CC[C@H]1CN(c2nc(N)c(C(=O)NCC(C)(C)O)nc2Cl)CCN1C1CCN(Cc2ccc(Cl)cc2)CC1`
8.4

Specify reported IC50 for the compound shown: `CC[C@H]1CN(c2nc(N)c(C(=O)NCCNS(C)(=O)=O)nc2Cl)CCN1C1CCN(Cc2ccc(Cl)cc2)CC1`
4.4

Specify reported IC50 for the compound shown: `CC[C@H]1CN(c2ncc(C(=O)NC3CC3)nc2Cl)CCN1C1CCN(C(=O)c2ccc(Cl)nc2N)CC1`
1.2

Specify reported IC50 for the compound shown: `CC[C@H]1CN(c2ncc(C(=O)NC)nc2C)CCN1C1CCN(C(=O)c2ccc(Cl)nc2N)CC1`
2.4

Specify reported IC50 for the compound shown: `CC[C@H]1CN(c2ncc(C(=O)NC)nc2C(F)(F)F)CCN1C1CCN(C(=O)c2ccc(Cl)nc2N)CC1`
1.5

Specify reported IC50 for the compound shown: `CC[C@H]1CN(c2ncc(C(=O)NC)nc2C)[C@H](C)CN1C1CCN(C(=O)c2ccc(Cl)cc2)CC1`
4.2

Specify reported IC50 for the compound shown: `CC[C@H]1CN(c2ncc(C(=O)NCCO)nc2Cl)CCN1C1CCN(C(=O)c2ccc(Cl)nc2N)CC1`
2.9

Specify reported IC50 for the compound shown: `CC[C@H]1CN(c2nc(N)c(C(=O)NCCNS(=O)(=O)C(F)(F)F)nc2Cl)CCN1C1CCN(Cc2ccc(Cl)cc2)CC1`
0.9

Specify reported IC50 for the compound shown: `CC[C@H]1CN(c2ncc(C(=O)NC)nc2C)CCN1C1CCN(C(=O)c2ccc(Cl)cc2)CC1`
3.6

Specify reported IC50 for the compound shown: `CC[C@H]1CN(c2nc(N)c(C(=O)NCC(F)(F)F)nc2Cl)CCN1C1CCN(Cc2ccc(Cl)cc2)CC1`
0.8

Specify reported IC50 for the compound shown: `CC[C@H]1CN(c2ncc(C(=O)NC3CC3)nc2C)CCN1C1CCN(C(=O)c2ccc(Cl)nc2N)CC1`
1.9

Specify reported IC50 for the compound shown: `CC[C@H]1CN(c2ncc(C(N)=O)nc2C)CCN1C1CCN(C(=O)c2ccc(Cl)cc2)CC1`
18

Specify reported IC50 for the compound shown: `CC[C@H]1CN(c2nc(N)c(C(N)=O)nc2Cl)CCN1C1CCN(Cc2ccc(C#N)cc2)CC1`
8.5

Specify reported IC50 for the compound shown: `CC[C@H]1CN(c2ncc(C(N)=O)nc2C)CCN1C1CCN(C(=O)c2ccc(Cl)nc2N)CC1`
4

Specify reported IC50 for the compound shown: `CC[C@H]1CN(c2ncc(C(N)=O)nc2Cl)CCN1C1CCN(C(=O)c2ccc(Cl)nc2N)CC1`
2.5

Specify reported IC50 for the compound shown: `CC[C@H]1CN(c2nc(N)c(C(=O)NCCO)nc2Cl)CCN1C1CCN(Cc2ccc(Cl)cc2)CC1`
0.4

Specify reported IC50 for the compound shown: `CC[C@H]1CN(c2ncc(C(=O)NC(C)C)nc2Cl)CCN1C1CCN(C(=O)c2ccc(Cl)nc2N)CC1`
0.9

Specify reported IC50 for the compound shown: `CC[C@H]1CN(c2ncc(C(=O)NC3CC3)nc2C)[C@H](C)CN1C1CCN(C(=O)c2ccc(Cl)cc2)CC1`
1.3

Specify reported IC50 for the compound shown: `CC[C@H]1CN(c2nc(N)c(C(N)=O)nc2Cl)CCN1C1CCN(C(=O)c2ccc(Cl)cc2)CC1`
76

Specify reported IC50 for the compound shown: `CC[C@H]1CN(c2nc(N)c(C(=O)N[C@@H]3CCOC3=O)nc2Cl)CCN1C1CCN(Cc2ccc(Cl)cc2)CC1`
1.5

Specify reported IC50 for the compound shown: `CC[C@H]1CN(c2ncc(C(=O)NC(C)(C)C)nc2Cl)CCN1C1CCN(C(=O)c2ccc(Cl)nc2N)CC1`
1.5

Specify reported IC50 for the compound shown: `CC[C@H]1CN(c2ncc(C(=O)NC3CC3)nc2C(F)(F)F)CCN1C1CCN(C(=O)c2ccc(Cl)nc2N)CC1`
1.8

Specify reported IC50 for the compound shown: CC[C@H]1CN(c2nc(N)c(C(N)=O)nc2Cl)CCN1C1CCN(C(CO)c2ccc(Cl)cc2)CC1 (stereo partly drawn)
1.9

Specify reported IC50 for the compound shown: CC[C@H]1CN(c2nc(N)c(C(=O)NCC(C)O)nc2Cl)CCN1C1CCN(Cc2ccc(Cl)cc2)CC1 (stereo partly drawn)
0.3

Specify reported IC50 for the compound shown: `CC[C@H]1CN(c2nc(N)c(C(N)=O)nc2Cl)CCN1C1CCN(Cc2ccc(OC(F)(F)F)cc2)CC1`
3.7

Specify reported IC50 for the compound shown: `CC[C@H]1CN(c2ncc(C(=O)NC3CC3)nc2C)CCN1C1CCN(C(=O)c2ccc(Cl)cc2)CC1`
1.1

Specify reported IC50 for the compound shown: `CC[C@H]1CN(c2nc(N)c(C(N)=O)nc2Cl)CCN1C1CCN(Cc2ccc(Cl)cc2[C@H](O)C(N)=O)CC1`
4.1

Specify reported IC50 for the compound shown: `CC[C@H]1CN(c2ncc(C(=O)NC[C@@H](C)O)nc2Cl)CCN1C1CCN(C(=O)c2ccc(Cl)nc2N)CC1`
2.9
